Test system: HAP1 MTAP-intact
test_name: SDMA in-cell western assay, HAP1 MTAP-intact cell line
Format: cell-based
experimental_context: Homo sapiens
quantity_kind: IC50

molecule	quantity_kind	result
Cc1ncoc1COc1ccc2c(c1)CCN(C[C@@H](O)CNC(=O)c1cc(NC3CCC3)nc(N3CCOCC3)c1)C2 [Compound 384]	IC50	< 1000 nM
CCN1CCN(c2cc(C(=O)NC[C@H](O)CN3CCc4cc(OCc5ocnc5C)ccc4C3)cc(NC3CCC3)n2)CC1 [Compound 410]	IC50	< 1000 nM
O=C(NC[C@H](O)CN1CCc2cc(OCc3cnco3)cc(F)c2C1)c1ccnc(NC2CCC2)c1 [Compound 362]	IC50	< 1000 nM
CCN(C)c1nc(NC2COC2)cc(C(=O)NC[C@H](O)CN2CCc3cc(OCc4cnco4)ccc3C2)n1 [Compound 289]	IC50	1000 to 10000 nM
O=C(NC[C@H](O)CN1CCc2c(ccc(OCc3cnco3)c2Cl)C1)c1ccnc(NC2CC(C(F)F)C2)c1 (some centres unmarked) [Compound 317]	IC50	≥ 10000 nM

---

Here the recorded pIC50 is given for each entry.
tested_target: PRMT5 (Homo sapiens, UniProt O14744)
Construct: purchased Viva (custom protein)
Sequence (O14744 whole entry): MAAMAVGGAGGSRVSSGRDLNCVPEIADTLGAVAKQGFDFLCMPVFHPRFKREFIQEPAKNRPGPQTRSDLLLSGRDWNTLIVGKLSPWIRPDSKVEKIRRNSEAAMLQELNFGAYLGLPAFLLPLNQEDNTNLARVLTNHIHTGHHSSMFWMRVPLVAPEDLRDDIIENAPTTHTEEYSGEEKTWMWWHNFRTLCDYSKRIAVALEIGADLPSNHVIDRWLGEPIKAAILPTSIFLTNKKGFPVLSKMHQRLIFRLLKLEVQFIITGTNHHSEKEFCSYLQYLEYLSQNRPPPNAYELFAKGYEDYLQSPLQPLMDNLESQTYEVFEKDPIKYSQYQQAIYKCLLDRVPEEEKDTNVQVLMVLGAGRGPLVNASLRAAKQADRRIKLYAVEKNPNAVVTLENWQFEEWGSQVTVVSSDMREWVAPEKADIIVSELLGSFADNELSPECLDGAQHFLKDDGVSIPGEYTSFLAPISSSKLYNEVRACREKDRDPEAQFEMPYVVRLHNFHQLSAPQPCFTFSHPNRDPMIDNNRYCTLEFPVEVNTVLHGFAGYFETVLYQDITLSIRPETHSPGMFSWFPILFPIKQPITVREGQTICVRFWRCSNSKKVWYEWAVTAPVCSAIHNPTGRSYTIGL
Sequence (Q9BQA1 whole entry partner): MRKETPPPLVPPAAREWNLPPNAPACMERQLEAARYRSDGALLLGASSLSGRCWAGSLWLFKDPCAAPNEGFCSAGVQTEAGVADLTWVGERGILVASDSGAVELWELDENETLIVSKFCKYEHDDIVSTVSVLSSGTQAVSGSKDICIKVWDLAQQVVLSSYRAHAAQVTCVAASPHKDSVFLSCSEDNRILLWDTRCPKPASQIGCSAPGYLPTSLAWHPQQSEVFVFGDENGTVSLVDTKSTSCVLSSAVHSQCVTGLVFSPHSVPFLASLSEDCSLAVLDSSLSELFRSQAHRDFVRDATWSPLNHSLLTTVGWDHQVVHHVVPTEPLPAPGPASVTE
test_name: PRMT5 IC50 assay in the presence of SAM as cofactor
Type: biochemical
pIC50: −log10 of the molar value.

compound	pIC50
Cc1ncoc1COc1ccc2c(c1)CCN(C[C@@H](O)CNC(=O)c1cc(NC3CCC3)nc(NC3CCC3)c1)C2 [Compound 636]	6.30 to 7.30
CC(=O)N1CCC(Nc2cc(C(=O)NC[C@H](O)CN3CCc4cc(OCc5ocnc5C)ccc4C3)cc(N(C)C3CCC3)n2)CC1 [Compound 628]	6.30 to 7.30
Cc1c(OCc2cnco2)ccc2c1CCN(C[C@@H](O)CNC(=O)c1ccc3c(c1)CCN(C(=O)c1ccc(Br)cc1)C3)C2 [Compound 546]	6.30 to 7.30
CC(C)C(=O)N1CCN(c2nc(NC3COC3)cc(C(=O)NC[C@H](O)CN3CCc4cc(OCc5cnco5)ccc4C3)n2)CC1 [Compound 313]	6.30 to 7.30
Cc1ncoc1COc1ccc2c(c1)CCN(C[C@@H](O)CNC(=O)c1cc(NC3CCC3)nc(N3CCCCC3)c1)C2 [Compound 633]	5.30 to 6.30
Cc1c(OCc2cnco2)ccc2c1CCN(C[C@@H](O)CNC(=O)c1ccnc(NC3CCN(C(=O)C(C)(C)C)CC3)c1)C2 [Compound 402]	6.30 to 7.30
O=C(NC[C@H](O)CN1CCc2cc(OCc3cnco3)ccc2C1)c1cc(NC2CCC2)nc(N2CCN(C(=O)C3CC3)CC2)c1 [Compound 378]	6.30 to 7.30
Cc1ncoc1COc1ccc2c(c1)CCN(C[C@@H](O)CNC(=O)c1cc(NC3COC3)nc(N3CCN(C(C)(C)C)CC3)n1)C2 [Compound 396]	6.30 to 7.30
O=C(NC[C@H](O)CN1CCc2cc(OCc3cnco3)ccc2C1)c1ccc(OC2CCN(Cc3ccccc3)CC2)cc1 [Compound 291]	6.30 to 7.30
CCN1CCN(c2cc(C(=O)NC[C@H](O)CN3CCc4cc(OCc5cnco5)ccc4C3)cc(NC3CCC3)n2)CC1 [Compound 286]	6.30 to 7.30
O=C(NC[C@H](O)CN1CCc2cc(OCc3cnco3)ccc2C1)c1ccnc(NC2CCN(C(=O)C3CC3)CC2)c1 [Compound 450]	6.30 to 7.30
O=C(NC[C@H](O)CN1CCc2cc(OCc3cnco3)ccc2C1)c1ccnc(NC2CCN(C(=O)C3CCC3)CC2)c1 [Compound 433]	6.30 to 7.30
CC(C)(C)N1CCN(c2nc(NC3COC3)cc(C(=O)NC[C@H](O)CN3CCc4cc(OCc5cnco5)ccc4C3)n2)CC1 [Compound 373]	6.30 to 7.30
CC(C)(C)C(=O)N1CCC(Nc2cc(C(=O)NC[C@H](O)CN3CCc4cc(OCc5cnco5)ccc4C3)ccn2)CC1 [Compound 449]	6.30 to 7.30
CC(C)N1CCN(c2nc(NC3COC3)cc(C(=O)NC[C@H](O)CN3CCc4c(ccc(OCc5cnco5)c4Cl)C3)n2)CC1 [Compound 293]	5.30 to 6.30
Cc1ncoc1COc1ccc2c(c1)CCN(C[C@@H](O)CNC(=O)c1ccnc(NC3CCN(C(=O)C4CC4)CC3)c1)C2 [Compound 624]	6.30 to 7.30
O=C(NC[C@H](O)CN1CCc2cc(OCc3cnco3)ccc2C1)c1cc(NC2CCC2)nc(N2CCOCC2)c1 [Compound 292]	6.30 to 7.30
Cc1ncoc1COc1ccc2c(c1C)CCN(C[C@@H](O)CNC(=O)c1cc(NC3COC3)nc(N3CCN(C(=O)C4CC4)CC3)n1)C2 [Compound 414]	6.30 to 7.30
CC(=O)N1CCC(Nc2ccnc(C(=O)NC[C@H](O)CN3CCc4cc(OCc5cnco5)ccc4C3)c2)CC1 [Compound 507]	6.30 to 7.30
O=C(NC[C@H](O)CN1CCc2cc(OCc3cnco3)c(F)cc2C1)c1ccnc(NC2CCC2)c1 [Compound 513]	5.30 to 6.30
CC(=O)N1[C@@H]2CC[C@H]1C[C@@H](Nc1cc(C(=O)NC[C@H](O)CN3CCc4cc(OCc5ocnc5C)ccc4C3)ncn1)C2 [Compound 630]	5.30 to 6.30
Cc1c(OCc2cnco2)ccc2c1CCN(C[C@@H](O)CNC(=O)c1cc(NC3CCC3)ncn1)C2 [Compound 376]	5.30 to 6.30
Cc1c(OCc2cnco2)cc(F)c2c1CCN(C[C@@H](O)CNC(=O)c1ccnc(NC3CCC3)c1)C2 [Compound 341]	6.30 to 7.30

Where do these numbers come from? They come from patent US11986471B2.
